Settings: in n-octanol, 303.15 K

- compound: "OC(CN1CCN(CC(O)(Cn2cncn2)c2ccc(F)cc2F)CC1)(Cn1cncn1)c1ccc(F)cc1F (stereo unspecified)"
  solubility (mole fraction): 0.000101

---

Conditions: in ethanol, 293.15 K

- compound: "OC(CN1CCN(CC(O)(Cn2cncn2)c2ccc(F)cc2F)CC1)(Cn1cncn1)c1ccc(F)cc1F (stereo unspecified)"
  solubility (mole fraction): 0.000305

---

Conditions: in n-octanol, 308.15 K
metricName: solubility (mole fraction)

- compound: "OC(CN1CCN(CC(O)(Cn2cncn2)c2ccc(F)cc2F)CC1)(Cn1cncn1)c1ccc(F)cc1F (stereo unspecified)"
  metricName: "solubility (mole fraction)"
  endpointValue: 0.000126
